Measured Kd of individual entries
Biological target: T1, cynomolgus monkey serum albumin (cynomolgus monkey, UniProt A2V9Z4 25-608)
T1 construct: Immobilised on SPR chips; also called cynoSA; cynomolgus albumin
Assay: SPR Biacore 8K+ SCK, albumin on chip, pH 7.4

binder	Kd
Alb23 D62A (VHH, VHH alone) VHH: EVQLLESGGGLVQPGGSLRLSCAASGFTFRSFGMSWVRQAPGKGPEWVSSISGSGSDTLYAASVKGRFTISRDNSKNTLYLQMNSLRPEDTAVYYCTIGGSLSRSSQGTLVTVSS	3.48 nM
Alb23 S103A (VHH, VHH alone) VHH: EVQLLESGGGLVQPGGSLRLSCAASGFTFRSFGMSWVRQAPGKGPEWVSSISGSGSDTLYADSVKGRFTISRDNSKNTLYLQMNSLRPEDTAVYYCTIGGSLARSSQGTLVTVSS	4.2 nM
